# test_target: UniProt Q8VGX5
# Sequence (Q8VGX5 as listed by the source): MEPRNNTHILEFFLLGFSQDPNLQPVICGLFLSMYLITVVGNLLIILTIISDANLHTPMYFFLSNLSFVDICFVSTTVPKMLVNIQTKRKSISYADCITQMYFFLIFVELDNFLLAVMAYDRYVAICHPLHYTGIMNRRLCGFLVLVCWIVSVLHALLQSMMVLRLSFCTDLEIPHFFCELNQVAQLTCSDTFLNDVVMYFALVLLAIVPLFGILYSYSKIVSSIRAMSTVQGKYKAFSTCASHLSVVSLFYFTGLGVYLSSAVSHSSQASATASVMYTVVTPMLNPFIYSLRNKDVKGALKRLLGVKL
# experimental_parameters: stereoisomer not certain
Hi! Could you answer with just one of these? true for active, false for inactive

In: Give the logged outcome of this assay for the following compound: O=C1Cc2ccccc2O1
Out: true

In: Give the logged outcome of this assay for the following compound: CCSSCC
Out: false

In: Give the logged outcome of this assay for the following compound: COC(OC)c1ccccc1
Out: false

In: Give the logged outcome of this assay for the following compound: CCCCCCOC(C)=O
Out: false

In: Give the logged outcome of this assay for the following compound: c1ccccc1
Out: false

In: Give the logged outcome of this assay for the following compound: CCCCCCC(C)O (configuration not stated)
Out: false

In: Give the logged outcome of this assay for the following compound: Cc1occc1SSc1ccoc1C
Out: false

In: Give the logged outcome of this assay for the following compound: CCCCCCC(=O)[O-].[H+]
Out: false

In: Give the logged outcome of this assay for the following compound: O=C1CCOc2ccccc21
Out: true

In: Give the logged outcome of this assay for the following compound: CCCCCCC(C)=O
Out: false

In: Give the logged outcome of this assay for the following compound: CC(C)=C1CCC(C)CC1=O (configuration not stated)
Out: true

In: Give the logged outcome of this assay for the following compound: CCCC=O
Out: true

====

# test_target: OR2W1 (Homo sapiens) (UniProt Q9Y3N9)
# Sequence (Q9Y3N9 whole entry): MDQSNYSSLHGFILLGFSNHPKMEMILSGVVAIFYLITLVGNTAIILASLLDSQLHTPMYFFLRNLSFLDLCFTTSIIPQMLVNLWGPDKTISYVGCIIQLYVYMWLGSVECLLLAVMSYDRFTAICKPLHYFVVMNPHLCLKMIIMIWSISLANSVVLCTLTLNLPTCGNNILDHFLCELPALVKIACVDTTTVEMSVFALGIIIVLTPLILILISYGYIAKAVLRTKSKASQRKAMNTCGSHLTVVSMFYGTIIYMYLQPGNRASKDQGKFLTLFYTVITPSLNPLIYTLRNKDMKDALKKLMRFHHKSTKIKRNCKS
# experimental_parameters: stereoisomer not certain
Hi! Could you answer with just one of these? 1 for active, -1 for inactive

In: Give the logged outcome of this assay for the following compound: COc1cccc(OC)c1O
Out: -1

In: Give the logged outcome of this assay for the following compound: SCCc1ccccc1
Out: 1

In: Give the logged outcome of this assay for the following compound: CC(=O)c1ccc(C)cc1
Out: 1

In: Give the logged outcome of this assay for the following compound: CC(=O)OCCc1ccccc1
Out: 1

In: Give the logged outcome of this assay for the following compound: CC(=O)O
Out: -1

In: Give the logged outcome of this assay for the following compound: CC(C)c1ccc(C=O)cc1
Out: 1

In: Give the logged outcome of this assay for the following compound: CCC(C)C=O (configuration not stated)
Out: -1

====

# test_target: OR1D2 (Homo sapiens)
# experimental_parameters: stereoisomer not certain
Hi! Could you answer with just one of these? class 1 = active, class 0 = inactive

In: Give the logged outcome of this assay for the following molecule: O=CCCc1ccccc1
Out: class 1

In: Give the logged outcome of this assay for the following molecule: COc1ccc(CC(C)C=O)cc1 (configuration not stated)
Out: class 1

In: Give the logged outcome of this assay for the following molecule: CC1=C(O)C(=O)OC1C (configuration not stated)
Out: class 0

In: Give the logged outcome of this assay for the following molecule: CCCC(S)CCOC(C)=O (configuration not stated)
Out: class 0

In: Give the logged outcome of this assay for the following molecule: O=CCCCCc1ccccc1
Out: class 0

In: Give the logged outcome of this assay for the following molecule: CC(C=O)Cc1ccc(C(C)(C)C)cc1 (configuration not stated)
Out: class 0

In: Give the logged outcome of this assay for the following molecule: CCC1OC(=O)C(O)=C1C (configuration not stated)
Out: class 0

====

# test_target: UniProt Q8VG64
# Sequence (Q8VG64 as listed by the source): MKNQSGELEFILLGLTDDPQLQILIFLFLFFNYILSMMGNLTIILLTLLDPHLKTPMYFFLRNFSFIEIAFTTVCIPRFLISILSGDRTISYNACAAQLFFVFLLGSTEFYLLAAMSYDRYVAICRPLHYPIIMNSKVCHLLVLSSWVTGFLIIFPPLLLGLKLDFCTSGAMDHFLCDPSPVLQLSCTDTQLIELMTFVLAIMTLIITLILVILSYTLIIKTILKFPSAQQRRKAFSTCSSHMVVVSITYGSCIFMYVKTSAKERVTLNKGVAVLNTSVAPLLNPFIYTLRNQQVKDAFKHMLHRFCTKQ
# experimental_parameters: stereoisomer not certain
Hi! Could you answer with just one of these? active, inactive

In: Give the logged outcome of this assay for the following compound: C=CC(C)=CCC=C(C)CCC=C(C)C
Out: inactive

In: Give the logged outcome of this assay for the following compound: CCC=CCCC=CC=O
Out: inactive

In: Give the logged outcome of this assay for the following compound: OCCCCCCCCCO
Out: active

In: Give the logged outcome of this assay for the following compound: CCc1ccccc1O
Out: inactive

In: Give the logged outcome of this assay for the following compound: CCCCCC1=C(C)CCC1=O
Out: inactive

In: Give the logged outcome of this assay for the following compound: C=CC(=C)CCC=C(C)CCC=C(C)C
Out: inactive

In: Give the logged outcome of this assay for the following compound: CCC=CCCCCC=O
Out: inactive

In: Give the logged outcome of this assay for the following compound: CCC(=O)C(=O)CC
Out: inactive
